Numbers sourced from patent US20170145112A1.

Consider the following binders; for each one, report its pKd.
# test system: T1, Human complement Factor D, mature (human, UniProt P00746 27-253)
# T1 construct: In the TR-FRET assay the factor D was bought from Complement Technology; In the hemolysis assay it was the factor D of C1q-depleted human serum; also called human Factor D; hFD
# T1 sequence (P00746 27-253): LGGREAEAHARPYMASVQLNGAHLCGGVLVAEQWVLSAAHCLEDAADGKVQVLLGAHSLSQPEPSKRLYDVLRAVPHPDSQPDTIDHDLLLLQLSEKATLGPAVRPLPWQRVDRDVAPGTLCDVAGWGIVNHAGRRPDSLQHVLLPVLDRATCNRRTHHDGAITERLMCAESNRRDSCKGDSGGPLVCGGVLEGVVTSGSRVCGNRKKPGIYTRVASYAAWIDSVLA
# method summary: SPR (Biacore T200): Fab captured with anti-huFab kit, human Factor D injected, 25 C, 1:1 model;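 also: sensorgrams were corrected by subtracting a blank injection of running buffer before fitting kinetic and affinity constants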
Answers are plain numbers, as −log10 of the molar value.

For orientation, consider the following solved cases.
Quick check: pKd of hu20D12.v2.5 Fab (Fab, V domains shown) VH: EVQLVQSGAEVKKPGASVKVSCKASGYTFTSYYMYWVRQAPGQGLEWIGEINPYSGGTNFNEKFKSRATLTVDTSTSTAYLELSSLRSEDTAVYYCAREGGFAYWGQGTLVTVSS VL: DIQMTQSPSSLSASVGDRVTITCKASQNVDTDVAWFQQKPGKAPKGLIYSASSRYSGVPSRFSGSGSGTDFTLTISSLQPEDFATYYCQQYNNYPLTFGQGTKVEIKR ?
10.35

Quick check: pKd of hu20D12.v2.9 Fab (Fab, V domains shown) VH: EVQLVQSGAEVKKPGASVKVSCKASGYTFTSYYMYWVRQAPGQGLEWIGWINPTSGGTNFNEKFKSRATLTVDTSTSTAYLELSSLRSEDTAVYYCAREGGFAYWGQGTLVTVSS VL: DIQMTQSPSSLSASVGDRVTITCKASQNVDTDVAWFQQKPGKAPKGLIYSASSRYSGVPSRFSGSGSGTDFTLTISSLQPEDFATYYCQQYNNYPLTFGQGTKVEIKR ?
9.73

---
Quick check: pKd of hu20D12.v2.4 Fab (Fab, V domains shown) VH: EVQLVQSGAEVKKPGASVKVSCKASGYTFTSYYMYWVRQAPGQGLEWIGEINPTSGETNFNEKFKSRATLTVDTSTSTAYLELSSLRSEDTAVYYCAREGGFAYWGQGTLVTVSS VL: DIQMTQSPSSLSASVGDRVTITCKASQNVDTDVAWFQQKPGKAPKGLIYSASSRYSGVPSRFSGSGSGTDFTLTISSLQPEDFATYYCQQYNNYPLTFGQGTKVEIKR ?
10.55
